TESTED SYSTEM: first (BD1: amino acids K57-E168) bromodomain of BRD4 (Homo sapiens, UniProt O60885)
Construct: His-tagged first (BD1: amino acids K57-E168)
ASSAY REMARKS: TR-FRET bromodomain binding assay, BRD4 BD1
STUDY CONDITIONS: TR-FRET assay protocol (A-G, compound concentration range); Ki calculated from IC50, probe Kd and probe concentration; read-out: TR-FRET Binding Ki: BRD4 (BDI_K57-E168)
pKi: −log10 of the molar value.
MEASURED PARAMETER: pKi

Example results:
| COMPOUND | pKi |
| --- | --- |
| CCOc1cc(=O)n(C)cc1-c1cc(S(C)(=O)=O)ccc1NCC1CC1 | 6.65 |
| CN(C)C(=O)c1cccc(-c2cc(=O)n(C)nc2-c2ccccc2Oc2ccccc2)c1 | 5.90 |
| CC(=O)NCc1ccc(-c2cc(=O)n(C)nc2-c2ccccc2Oc2ccccc2)cc1 | 6.85 |
| CCOc1cc(=O)n(C)cc1-c1cc(NS(=O)(=O)c2ccc(Cl)cc2F)ccc1Oc1ccc(F)cc1F | 6.71 |
| CN(C)c1cncc(-c2cc(=O)n(C)nc2-c2ccccc2Oc2ccccc2)c1 | 6.14 |

1: CCS(=O)(=O)Nc1ccc(Oc2ccc(F)cc2F)c(-c2cn(C)c(=O)cc2OCC2CCOC2)c1 (stereo not drawn)
2: CC(=O)Nc1ccc(Oc2ccc(F)cc2F)c(-c2c[nH]c(=O)c(C)c2)c1
3: Cn1nc(-c2cc(C#N)ccc2Oc2ccccc2)ccc1=O
// ascending sort on recorded pKi Arrange the labels as the request states and list them.
3, 2, 1

A: COc1cccc(-c2cc(=O)n(C)nc2-c2ccccc2Oc2ccccc2)c1
B: Cn1nc(-c2ccccc2Oc2ccccc2)c(-c2ccc(CCCO)cc2)cc1=O
Hi there! Just curious which has the higher pKi between A and B . State your choice using its label.
B
(B: 6.63, A: 5.97)

1: CCOc1cncc(-c2cc(=O)n(C)nc2-c2ccccc2Oc2ccccc2)c1
2: CCS(=O)(=O)Nc1ccc(Oc2ccc(F)cc2F)c(-c2cc(F)c(=O)n(C)c2)c1
Hi there! Just curious which has the higher pKi between 1 and 2 . State your choice using its label.
2
(2: 7.57, 1: 5.18)

1: Cn1nc(-c2ccccc2Oc2ccccc2)c(-c2ccc3scnc3c2)cc1=O
2: Cn1nc(-c2ccccc2Oc2ccccc2)c(-c2ccncc2)cc1=O
3: Cn1nc(-c2ccccc2Oc2ccccc2)c(-c2ccc(CN3CCOCC3)cc2)cc1=O
4: CCS(=O)(=O)Nc1ccc(Oc2ccc(F)cc2F)c(-c2cn(C)c(=O)cc2-c2ccc(N3CCN(C)CC3)cc2)c1
5: CCOc1cc(=O)n(C)cc1-c1cc(NS(=O)(=O)c2cccc3ccccc23)ccc1Oc1ccc(F)cc1F
// ascending sort on recorded pKi Arrange the labels as the request states and list them.
1, 2, 3, 5, 4
(1: 5.19, 2: 5.80, 3: 6.85, 5: 7.16, 4: 8.71)
